test: self-splicing fitness, log relative to wild type (ln ratio); higher = more splicing; Tetrahymena group I intron in knt gene, E. coli kanamycin selection, DiMSum; sequences stand for … in CUCUCU…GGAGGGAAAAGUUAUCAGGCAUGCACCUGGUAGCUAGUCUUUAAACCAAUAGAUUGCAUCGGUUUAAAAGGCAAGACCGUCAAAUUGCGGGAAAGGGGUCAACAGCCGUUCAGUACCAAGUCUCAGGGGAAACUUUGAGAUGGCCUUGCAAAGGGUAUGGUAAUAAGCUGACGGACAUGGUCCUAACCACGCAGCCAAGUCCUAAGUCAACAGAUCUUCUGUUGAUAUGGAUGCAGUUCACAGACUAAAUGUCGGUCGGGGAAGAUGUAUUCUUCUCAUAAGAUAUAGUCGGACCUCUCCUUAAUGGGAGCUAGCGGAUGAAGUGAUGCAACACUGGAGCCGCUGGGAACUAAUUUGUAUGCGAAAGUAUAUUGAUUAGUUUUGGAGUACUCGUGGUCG; details: 30 °C;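 further: selection with 25 µg/mL kanamycin versus none on LB agar overnight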
measured.attribute: self-splicing fitness (ln)

| residue.codes | measured.attribute | experimental.value |
| --- | --- | --- |
| UUCAAGCAAUAUUACGAGUC | self-splicing fitness (ln) | -3.3 |
| AGGAAGCAAUAUUACGAGCG | self-splicing fitness (ln) | -1.96 |
| AAUGAGCAAUAUUACGGAAA | self-splicing fitness (ln) | -2.99 |
| GGAUAGCAAUAUUACGGCGC | self-splicing fitness (ln) | 0.356 |
| AUCGAGCAAUAUUACGGUCU | self-splicing fitness (ln) | -3.03 |
| CCUUAGCAAUAUUACGUGUA | self-splicing fitness (ln) | -4.28 |
| AUGCAGCAAUAUUACGGCAA | self-splicing fitness (ln) | 0.0857 |
| AUGCAGCAAUAUUACGACGA | self-splicing fitness (ln) | -0.531 |

----------
Entries and their self-splicing fitness (ln) values follow.
assay: self-splicing fitness, log relative to wild type (ln ratio); higher = more splicing; Tetrahymena group I intron in knt gene, E. coli kanamycin selection, DiMSum; sequences stand for … in CUCUCU…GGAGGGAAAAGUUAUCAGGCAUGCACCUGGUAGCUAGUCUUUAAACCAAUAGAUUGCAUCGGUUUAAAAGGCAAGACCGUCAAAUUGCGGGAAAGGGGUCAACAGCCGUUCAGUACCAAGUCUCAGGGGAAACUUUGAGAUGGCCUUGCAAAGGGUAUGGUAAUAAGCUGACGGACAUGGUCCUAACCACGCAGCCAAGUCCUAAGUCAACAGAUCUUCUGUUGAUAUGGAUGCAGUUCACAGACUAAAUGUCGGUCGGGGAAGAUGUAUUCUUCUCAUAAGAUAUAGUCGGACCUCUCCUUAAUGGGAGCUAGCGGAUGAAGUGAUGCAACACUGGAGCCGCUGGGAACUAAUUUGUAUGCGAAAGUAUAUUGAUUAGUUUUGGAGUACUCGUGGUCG; conditions: 30 °C

| residue.codes | self-splicing fitness (ln) |
| --- | --- |
| CUAGAGCAAUAUUACGUUAC | -2.88 |
| UCUUAGCAAUAUUACGAGCG | -1.36 |
| UUUGAGCAAUAUUACGGCAA | -1.72 |
| GCCAAGCAAUAUUACGCCCG | -2.72 |
| GUUGAGCAAUAUUACGGACA | -0.932 |
| UGCGAGCAAUAUUACGAGGU | -1.68 |
| GAUAAGCAAUAUUACGCGGU | -3.19 |
| GGGGAGCAAUAUUACGAGCG | -2.37 |
| UGGUAGCAAUAUUACGAAAA | -2.14 |
| CUCCAGCAAUAUUACGUACC | -3.31 |
| CUACAGCAAUAUUACGGGCU | -4.53 |
| CACGAGCAAUAUUACGUCAA | -2.34 |
| CAUCAGCAAUAUUACGAAAG | -0.638 |
| UGACAGCAAUAUUACGUUAG | -1.01 |
| CGGAAGCAAUAUUACGGCAA | -2.89 |
| CACUAGCAAUAUUACGGGAG | -1.54 |
| AAGUAGCAAUAUUACGACAG | -2.86 |
| UAACAGCAAUAUUACGUCCU | -0.956 |
| UUGUAGCAAUAUUACGGUAU | -0.659 |
| GUGUAGCAAUAUUACGUCCA | -1.74 |
| AGAGAGCAAUAUUACGAACU | -1.81 |
| GACCAGCAAUAUUACGCGUC | -4.75 |
| GUUCAGCAAUAUUACGAAAA | -0.216 |
| GCUCAGCAAUAUUACGUAAA | -0.495 |
| UCGUAGCAAUAUUACGGGCA | -0.422 |
| UUGUAGCAAUAUUACGGAAG | -3.94 |
| AAGAAGCAAUAUUACGCGAG | -0.936 |
| AUAUAGCAAUAUUACGAAUA | -1.36 |
| GGGGAGCAAUAUUACGGCCA | -0.941 |
| CCCAAGCAAUAUUACGCUCG | -3.17 |
| AAACAGCAAUAUUACGCGCU | -1.03 |
| ACCUAGCAAUAUUACGUUUA | -3.18 |
| UGUCAGCAAUAUUACGGUAC | -4.07 |
| CUCAAGCAAUAUUACGCCUG | -4.22 |
| CGAUAGCAAUAUUACGGAGG | -1.28 |
| AUAUAGCAAUAUUACGGCCG | -1.15 |
| CUAAAGCAAUAUUACGGUUA | -3.78 |
| GGAUAGCAAUAUUACGGAUC | -0.869 |
| UGUUAGCAAUAUUACGUGAG | -1.02 |
| AACGAGCAAUAUUACGUUAG | -3.71 |
| ACUUAGCAAUAUUACGCAAG | -2.24 |
| UGUAAGCAAUAUUACGAGGC | -1.16 |
| CUCCAGCAAUAUUACGGGCG | -1.74 |
| AUGUAGCAAUAUUACGGGAG | -3.16 |
| CAAGAGCAAUAUUACGUAAG | -0.178 |
| UUGAAGCAAUAUUACGAUAC | -2.62 |
| UGGUAGCAAUAUUACGGAGU | -2.76 |
| GAAGAGCAAUAUUACGCUAG | -4.24 |
| GCGUAGCAAUAUUACGACCG | -1.5 |
| UGAUAGCAAUAUUACGGAAG | -1.99 |
| AAAUAGCAAUAUUACGUUGA | -3.3 |
| ACGAAGCAAUAUUACGUCCC | -1.28 |
| CUCCAGCAAUAUUACGGCGU | -3.61 |
| AACAAGCAAUAUUACGGACG | -1.3 |
| CCACAGCAAUAUUACGUUGC | -3.44 |
| CUGCAGCAAUAUUACGCUAA | -3.28 |
| CGUCAGCAAUAUUACGAGGG | -3.93 |
| AGAUAGCAAUAUUACGACGC | -0.572 |
| CUUCAGCAAUAUUACGGUAU | -3.47 |
| CCAGAGCAAUAUUACGGGGG | -3.72 |
| GGCUAGCAAUAUUACGAUCU | -0.432 |
| UGCCAGCAAUAUUACGAAGC | -3.74 |
| CCUUAGCAAUAUUACGCGUA | -3.27 |
| CCGUAGCAAUAUUACGGGUC | -2.96 |
| UAACAGCAAUAUUACGUAAA | -2.6 |
| GUAGAGCAAUAUUACGCCUA | -1.39 |
| GGGGAGCAAUAUUACGUGCA | -3.32 |

----------
assay: self-splicing fitness, log relative to wild type (ln ratio); higher = more splicing; Tetrahymena group I intron in knt gene, E. coli kanamycin selection, DiMSum; sequences stand for … in CUCUCU…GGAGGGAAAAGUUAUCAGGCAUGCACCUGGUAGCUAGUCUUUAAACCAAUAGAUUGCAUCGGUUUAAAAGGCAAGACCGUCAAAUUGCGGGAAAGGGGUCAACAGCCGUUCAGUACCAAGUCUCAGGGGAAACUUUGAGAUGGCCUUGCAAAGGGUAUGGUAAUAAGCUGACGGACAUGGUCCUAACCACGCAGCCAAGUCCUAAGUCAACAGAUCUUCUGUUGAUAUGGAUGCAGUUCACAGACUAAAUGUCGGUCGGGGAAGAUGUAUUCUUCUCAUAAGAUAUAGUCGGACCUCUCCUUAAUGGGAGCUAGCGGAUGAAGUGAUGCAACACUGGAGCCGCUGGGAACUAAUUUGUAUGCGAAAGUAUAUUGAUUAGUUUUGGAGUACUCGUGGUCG; conditions: 37 °C
Lab note: anything with self-splicing fitness (ln) at or over -1 counts as True; the rest go in False.

| residue.codes | category.label |
| --- | --- |
| AGUGAGCAAUAUUACGCGUU | False |
| GGUUAGCAAUAUUACGCAUA | True |
| ACUAAGCAAUAUUACGGGUU | False |
| GGCGAGCAAUAUUACGUUUG | False |
| GGCUAGCAAUAUUACGGCAC | True |
| AUUGAGCAAUAUUACGCGCU | False |
| GAUCAGCAAUAUUACGUUGG | True |
| GAAAAGCAAUAUUACGGUUU | True |
| CCCUAGCAAUAUUACGAAAA | False |
| GUAAAGCAAUAUUACGCUUG | False |
| UAAAAGCAAUAUUACGCCCA | True |
| CGAGAGCAAUAUUACGUGGC | False |
| UUACAGCAAUAUUACGAAUA | False |
| UAGGAGCAAUAUUACGUGGA | False |
| GGCAAGCAAUAUUACGCGUC | False |
| GCCAAGCAAUAUUACGAUCA | False |

Where these numbers come from: the supplement of paper PMC7877785
